For each entry below, report its normalized growth value.
- experiment_description: chemical genetic growth profiling, strain panel (AID 1159580);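 further: tested at 20 µM; growth read once vehicle control cultures reached saturation at 30 °C; 1 = growth at the plate median or of vehicle wells; lower values mean less growth of the strain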
- study_conditions: S. cerevisiae deletion strains, growth OD, locus YOR083W, strain WHI5 (second series), hits give low values
In all, about 5,500 compounds went through this assay and about 2,000 (36%) were called active. About 18% were inconclusive and are not listed. The list shows a part of the results.
Numbers only.

Would you please look over these solved cases?
Reported normalized growth of NC/C=C\C(=O)O : 1.02

The compound listed as C=C1C(=O)O[C@@H]2[C@H]3O[C@]3(C)CCC=C(C)CC[C@@H]12 has a reported normalized growth of 0.972

Reported normalized growth of Cc1ccc(Cl)c(Nc2ccccc2C(=O)O)c1Cl : 0.971

get_value(item= C[N+]1(C)C2CC(OC(=O)C(CO)c3ccccc3)CC1C1OC12 (configuration not stated) , readout=normalized growth) returns 0.978

Notebook: CC(C)(Oc1ccc(C2CC2(Cl)Cl)cc1)C(=O)O (configuration not stated) , normalized growth read as 1.01

Provide normalized growth values for the following items, in order.
1. C[C@@H]1O[C@H](C[N+](C)(C)C)CS1
2. CC(C)COCC(CN(Cc1ccccc1)c1ccccc1)N1CCCC1 (configuration not stated)
3. CCN(CC)CCOC(=O)c1ccc(N)cc1

1. 1.05
2. 1.03
3. 0.979

---

- experiment_description: chemical genetic growth profiling, strain panel (AID 1159580)
- study_conditions: S. cerevisiae deletion strains, growth OD, locus YER133W, strain GLC7
The campaign covered roughly 5,500 compounds. About 2,000 (36%) were called active. About 18% were inconclusive and are not listed. Cut-off read from the data, not from the text of the source: active = normalized growth mostly below about 0.91 (no sharp cut-off); inconclusive = no clear call, values can overlap the other calls; inactive = mostly above about 0.92. The list shows a part of the results.
Give your call using only these classes: 1 for active, -1 for inactive

Solved entries:
Could you please tell me the result logged for Cc1onc(-c2c(Cl)cccc2Cl)c1C(=O)NNc1c(Cl)cccc1Cl in this assay? -1

Call for entry O=[N+]([O-])c1ccc2oc(C(O)c3ccc(-c4ccccc4)cc3)cc2c1 (stereo not given) : -1

For Cc1onc(-c2c(Cl)cccc2Cl)c1C(=O)NC(C)(C)CC(C)(C)C , which call appears in the assay record? -1

Assay result, entry O=C(Nc1ccc(OC(F)(F)F)cc1)OC1CN(C(c2ccccc2)c2ccccc2)C1 — outcome? -1

Which outcome was assigned to CC(C)(CCC(C)(C)N1C(=O)c2cccc3cccc(c23)C1=O)N1C(=O)c2cccc3cccc(c23)C1=O in this test? 1

More entries:
Tell me the recorded outcome of this test for O=c1c2ccccc2[nH]c(=S)n1-c1cccc(C(F)(F)F)c1 . 1

Recorded call for O=C(Nc1ccc(OC(F)(F)F)cc1)N1CCN(c2nc(-c3ccccc3)ns2)CC1 ? -1

Which result was noted for this compound in the test: CC(=O)Nc1ccc(S(=O)(=O)Nc2ccccc2Oc2ccc(Cl)cc2Cl)cc1 -1

Which outcome was assigned to FC(F)(F)c1cccc(-n2c(CSCc3cccc4ccccc34)n[nH]c2=S)c1 in this test? -1

Kindly provide the recorded test outcome for the following compound: CC(C)(C)c1ccc(C(=O)NNc2c(Cl)cccc2Cl)cc1 -1

---

I'd be grateful if you could share measured normalized growth for these entries.
- experiment_description: chemical genetic growth profiling, strain panel (AID 1159580)
- study_conditions: S. cerevisiae deletion strains, growth OD, locus YBR229C, strain ROT2, hits give low values
Among all 5,500 compounds or so, about 2,000 (36%) were called active. Roughly 18% stayed inconclusive and do not appear here. This is one part of the list.
Give bare numbers.

Value sought for every listed compound: normalized growth.
1. CCCCN(CCCC)CCCOC(=O)c1ccc(N)cc1
2. Cc1cc(NC(=O)C2=C(O)c3ccccc3S(=O)(=O)N2C)no1
3. CCCCOC(=O)c1ccccc1C(=O)OCc1ccccc1
4. Cc1cccc(C)c1NC1=NCCCS1
5. CC(=O)c1ccc(-c2cccs2)s1
6. CC(/C=N\O)=N/Nc1ccccc1
7. CCCCN1CCCCC1C(=O)Nc1c(C)cccc1C (centres undefined)

0.998
0.991
0.987
1
0.963
0.938
1.02

Consider the following items and state reported normalized growth for each.
1. Clc1cccc(Cl)c1NC1=NCCN1
2. Clc1cccc(NC2=NCCS2)c1Cl
3. O=C(c1ccccc1)c1cc2c(cc1Br)OCCO2
4. CCCCCCOc1ccccc1C(N)=O
5. CC1(C)C2(Cl)C(Cl)C(Cl)C(Cl)(C(Cl)Cl)C1(Cl)C2Cl (centres undefined)
6. N#CCC(=O)Nc1ccccn1

1: 0.999; 2: 1; 3: 0.953; 4: 0.86; 5: 0.985; 6: 0.964

Lookup result for CCN(CC)CCOC(=O)c1ccc(N)cc1 ; measured normalized growth: 1.01

---

- experiment_description: chemical genetic growth profiling, strain panel (AID 1159580);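 further: tested at 20 µM; growth read once vehicle control cultures reached saturation at 30 °C; 1 = growth at the plate median or of vehicle wells; lower values mean less growth of the strain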
- study_conditions: S. cerevisiae deletion strains, growth OD, locus YKL203C, strain TOR2, hits give low values
In all, about 5,500 compounds went through this assay and about 2,000 (36%) were called active. Another 18% or so got no clear call; they are omitted. This is one part of the list.
measured_endpoint: normalized growth

Provide each entry's normalized growth from the list below.
1. S=c1[nH]nc(Nc2ccc(I)cc2)s1
2. CCc1ccn2cc(Nc3ccccc3Cl)nc2c1
3. Cc1c(C(=S)Nc2ccccc2)sc2ccccc12
4. COC(=O)c1sccc1-c1ccc(/C=C/[N+](=O)[O-])o1
5. O=C(Nc1ccc(Cl)cc1)OCCSc1nc2ccccc2s1
6. OC(CN1CCN(c2nc3ccc(Cl)cc3s2)CC1)Cn1ccc2ccccc21 (stereo unspecified)

["0.648 (active)", "0.973 (inactive)", "0.925 (inactive)", "0.893 (inactive)", "0.987 (inactive)", "0.981 (inactive)"]

---

- experiment_description: chemical genetic growth profiling, strain panel (AID 1159580);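 further: tested at 20 µM; growth read once vehicle control cultures reached saturation at 30 °C; 1 = growth at the plate median or of vehicle wells; lower values mean less growth of the strain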
- study_conditions: S. cerevisiae deletion strains, growth OD, locus YOR144C, strain elg1, hits give low values
Among all 5,500 compounds or so, about 2,000 (36%) were called active. About 18% were inconclusive and are not listed. Some of the results follow.
For each entry below, report its normalized growth value.
Numbers only.

Here are 4 molecules together with their reported answers.
Given item COc1ccc(CCN2CCC(Nc3nc4ccccc4n3Cc3ccc(F)cc3)CC2)cc1 , the value recorded as its normalized growth is 0.986

Entry O=C(O)CN(CC(=O)O)Cc1cc2c(-c3ccccc3C(=O)O)c3cc(CN(CC(=O)O)CC(=O)O)c(=O)cc-3oc2cc1O , normalized growth reported as 1.02

Consider CC(C)C(C)/C=C/C(C)C1CCC2C3=CC=C4CC(O)CCC4(C)C3CCC21C (stereo not drawn) . Its measured normalized growth is 1

Value of measured normalized growth for the entry CCN(CC)C(=O)c1cccc(C)c1 : 0.993

Parameter requested: normalized growth. Apply to each item below.
1. NC(N)=NS(=O)(=O)c1ccc(N)cc1
2. CCCCN1CCCCC1C(=O)Nc1c(C)cccc1C (stereo not drawn)
3. O=C(O)c1cc2cc(Cc3cccnc3)ccc2o1
4. O=C(O)c1ccccc1-c1c2cc(Br)c(=O)cc-2oc2[c]([Hg])c(O)c(Br)cc12
5. COC(=O)C(C)c1ccc(C(=O)c2cccs2)cc1 (stereo not drawn)

[0.99, 0.993, 0.995, 1.02, 0.96]

Record normalized growth per entry; entries follow.
1. C=C1C(C)C2C(Cc3ccccc3)NC(=O)C23OC(=O)/C=C/C(=O)CCCC(C)C/C=C/C3C1O (stereo not drawn)
2. CC(C)COCC(CN(Cc1ccccc1)c1ccccc1)N1CCCC1 (stereo not drawn)

1
0.99

For every item in the list below, what is its measured normalized growth?
1. O=C1CC2OCC=C3CN4CC[C@]56c7ccccc7N1C5[C@H]2[C@H]3CC46 (stereo partly drawn)
2. CC1=CC2C(CC1=O)C(C)=CCC2C(C)C (stereo not drawn)
3. CCOC(=O)[C@H](CCc1ccccc1)N[C@@H](C)C(=O)N1[C@H](C(=O)O)C[C@@H]2CCC[C@@H]21

1. 1
2. 0.969
3. 1.02

For each of the items listed, what is its normalized growth?
1. C#CCCCCCCCCCCCC(O)CC(O)COC(C)=O (stereo not drawn)
2. O=C(Cn1ccnc1[N+](=O)[O-])NCCO
3. CCNC(=O)CC[C@H](N)C(=O)O
4. CC(=O)OCC[C@H](C)CCC=C(C)C
5. Cc1cccc(Nc2ccccc2C(=O)O)c1C
6. CC(C)(C)CC(C)(C)c1ccc(O)c(Cc2ccc(Cl)cc2Cl)c1
7. COC(=O)C[C@H]1C(C)(C)C(=O)[C@@H]2CC3=C(CC[C@]4(C)C3=CC(=O)O[C@H]4c3ccoc3)[C@@]1(C)C2=O

0.973
1.01
0.995
1.03
0.86
1.01
1

---

- experiment_description: chemical genetic growth profiling, strain panel (AID 1159580);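 further: tested at 20 µM; growth read once vehicle control cultures reached saturation at 30 °C; 1 = growth at the plate median or of vehicle wells; lower values mean less growth of the strain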
- study_conditions: S. cerevisiae deletion strains, growth OD, locus YMR058W, strain fet3, hits give low values
In all, about 5,500 compounds went through this assay and about 2,000 (36%) were called active. Inconclusive results (about 18%) are left out. The list shows a part of the results.
measured_endpoint: normalized growth
One number for each entry.

Sample records with normalized growth:
Lab note: CC[C@H](C)C(=O)O[C@H]1C[C@@H](C)C=C2C=C[C@H](C)[C@H](CC[C@@H]3C[C@@H](O)CC(=O)O3)[C@H]21 gave normalized growth of 1

For CCC(C)C(=O)O[C@H]1C[C@H](O)C=C2C=C[C@H](C)[C@H](CC[C@@H](O)C[C@@H](O)CC(=O)O)C21 (some centres undefined) the compound record lists normalized growth as 1.01

Sure, the documented normalized growth for C[N+]1(C)C2CC(OC(=O)[C@@H](CO)c3ccccc3)CC1C1OC12 (some centres undefined) is 0.973

Kindly consider the entry below.
CCC(C)(C)C(=O)O[C@H]1C[C@@H](C)C=C2C=C[C@H](C)[C@H](CC[C@@H]3C[C@@H](O)CC(=O)O3)[C@H]21 yielded normalized growth of 0.977
